Numbers sourced from ChEMBL document CHEMBL6078649.

# Tgt: Replicase polyprotein 1ab (Severe acute respiratory syndrome coronavirus 2)
# Assay Summary: Inhibition of SARS-CoV-2 3CLPro using DabcylKNSTLQSGLRK-Edans as substrate at 5 uM preincubated for 30 mins followed by substrate addition measured after 20 mins by FRET assay relative to control
# Condition: time 50.0 min

| Test Smiles | inhibition (%) |
| --- | --- |
| O=C(/C=C/c1c(Cl)c(O)c(O)c(O)c1Cl)c1ccccc1 | 1 |
| O=C(/C=C/c1c(Cl)c(O)c(O)c(O)c1Cl)c1ccc(-c2ccc(F)cc2)cc1 | -0.6 |
| O=C(/C=C/c1c(Cl)c(O)c(O)c(O)c1Cl)c1ccc([N+](=O)[O-])cc1 | 0.6 |
| O=C(/C=C/c1c(Cl)c(O)c(O)c(O)c1Cl)c1ccc(Cl)cc1 | 0.4 |
| O=C(/C=C/c1c(Cl)c(O)c(O)c(O)c1Cl)c1ccc(O)cc1 | 1.3 |
